B1: tRNA (parent)
chain: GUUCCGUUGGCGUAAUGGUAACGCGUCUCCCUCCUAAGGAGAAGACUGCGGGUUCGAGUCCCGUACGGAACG

- Variants of: B1
- assay-explanation: yeast fitness relative to wild type (ratio to wild type); higher = fitter; tRNA-Arg(CCU), competitive growth, 37 C, YPD
This sample holds only a part of the variants without activity.
reported-endpoint: yeast fitness
Lab note: record the figure alone, no unit after it.

yeast fitness lookup needed for GUUCCGUUGGCGUAAUGGUAACGCGUCUCUCUCCUAAGGAGAAGACUGCGGGUUCGAGUCCCGUACGGAGCG [C30U A70G] , thanks.
0.941

yeast fitness lookup needed for GUUCCGUUGGCGUAAUGGUAACGCGUCUGCCCCCUAAGGAGAAGACUGCGGGUUCGAGUCCCGUACGGACCG [C29G U32C A70C] , thanks.
0.555

yeast fitness lookup needed for GUUCCGUUGGCGUAAUGGUAACGCGUCUCCCUCCUAAGGAGAAGACUGGGGGCUCGAGUCCCGUACGGAACG [C49G U53C] , thanks.
0.723

yeast fitness lookup needed for GUUCCGUUGGCGUAACGGUAACGCGUCUCCCUCCUAAGGAGAAGACUGCGGGUUAGAGUCCCGUACGGAACG [U16C C55A] , thanks.
0.664

yeast fitness lookup needed for GUUCCGUUGGCGUAAUGGUAACGCGUCUCCAUGCUAAGGAGAAGACUGCGGGUUCGAGUCCCGUACGGAACG [C31A C33G] , thanks.
0.569

yeast fitness lookup needed for GUUCCGUUGGGGUAAUGCUAACGCGCCUCCGUCCUAAGGAGAAGAUUGCGGGUUCGAGUGGCGUCCGGAACG [C11G G18C U26C C31G C46U C60G C61G A65C] , thanks.
0.61

yeast fitness lookup needed for GUUCCGUUGGCGUAAUGGAAUCGCGUCUCCCUCCUAAGGAGAAGACUGCGGGUUCGAGUCCCGUACGGAACG [U19A A21U] , thanks.
0.854

yeast fitness lookup needed for GUUCCGUUGGCGUAAUGGUAACGCGUCUCCCUCCUAAGGAGAAGACUGCGGGAUCGAGCCCCGUACGGAACG [U53A U59C] , thanks.
0.555

yeast fitness lookup needed for GUUCAGUUGGCGUAAUGGUAACGCGUCUCCCUCCUAAGAAGAAGACUGUGGGUUCGAGUCCCGUACGGAACG [C5A G39A C49U] , thanks.
0.541

yeast fitness lookup needed for GUUCCGUUGGCGUAAAGGUAACGCGUCUCCCUCCUAAGGAGAAGACUGCGGGUUCGAGUCCCGUACGGAUCG [U16A A70U] , thanks.
1.03

yeast fitness lookup needed for GUUCCGUUGGUGUAAUGGUAACGCGUCUCCCUCCUAAGGAGAAGACUGCGGGUUCGAGUCACGUACGGAACG [C11U C61A] , thanks.
0.869

yeast fitness lookup needed for GUUCCGUUAGCGUAAUGGCAACGCGUCUCCCUCCUAAGGAGAAGACUGCGGGUUCGAGUCCCGUAUGGAACG [G9A U19C C66U] , thanks.
0.742

yeast fitness lookup needed for GUUCCGUUGGCGUGAUGGUAACGCGUCUCCCUCCUAAGGAGAAGAAUGCGGGUUCGAGUCCCGUACGGAACG [A14G C46A] , thanks.
0.873

yeast fitness lookup needed for GUUCCGUUGGCGUAAUGGGUACGCGUCUCCCUCCUAAGGAGAAGACUGCGGAUUCGAGUCCCGUACGGAACG [U19G A20U G52A] , thanks.
0.698

yeast fitness lookup needed for GUUCCGUUAGCGUAAUGGUAACGCGUCUCCCUCCUAAGGAGAAGACUGCGGGUACGAGUCCCGUACGGAACG [G9A U54A] , thanks.
0.696

yeast fitness lookup needed for GUUCCGUUGGCGUAAUGGUAACGCGUCUCCGUCCCAAGGAGAAGACUGCGGGUUCGAGUCCCGUAUGGAACG [C31G U35C C66U] , thanks.
0.558

yeast fitness lookup needed for GUUCCGUUGGCGUAAUGGUAACGCGUCUCCCUUCUAAGGAGAAGACUGCGGGUUCGAGUCCAGUACGGAACG [C33U C62A] , thanks.
0.824

yeast fitness lookup needed for GAUUCGUUGGCGUAAUGGUAACGCGUCUCCCUCCUAAGGAGAAGACUGCGGGUUCGAGUCCCGUACGGUACG [U2A C4U A69U] , thanks.
0.787

yeast fitness lookup needed for GUUCAGUUGGCGUAAUGGUAACGCGUCUCCCCCCUCAGGAGAAGACUGCGAGUUCGAGUCCCGUACGGAACG [C5A U32C A36C G51A] , thanks.
0.59

yeast fitness lookup needed for GUUUCGUUGGCAUAAUGGUAACGCGUCUCCCUCCUAAGGUGAAGACUGCGGGUUCGAGUCCCGUACGGCACG [C4U G12A A40U A69C] , thanks.
0.56

yeast fitness lookup needed for GUUCCGUUGGCGUAAUGGUAACGCGUCUUCAUCCUAAGGAGAAAACUGCGGGUUCGAGUCCCGUACGGAACG [C29U C31A G44A] , thanks.
0.885

yeast fitness lookup needed for GUUCCGUUGGCGUAAUGGUAACGCGUCUCCCUCCUAAGGAGUAGACUGCGGGUUCGAGUCCCGUACGGAACG [A42U] , thanks.
0.978

yeast fitness lookup needed for GUUGCGUUGGCGUAAUGGUAACGCGUCUCCUUCCUAAGGAGAAGACUGCGGGUUCGUGUCCCGUACGGAACG [C4G C31U A57U] , thanks.
0.665

yeast fitness lookup needed for GUUCCGUUGGCGUAAUGGUAACGCGUCUCCGUCCUAAGGAAAAGACUGCGGCUUCGAGUUCGGUAGGGAACG [C31G G41A G52C C60U C62G C66G] , thanks.
0.539

yeast fitness lookup needed for GUUCCGUUGGCGUAAUGGUGACGCGUCUCCCACCUAAGGAGACGACUGCGGGGUCGAGUCCCGUACGGAACG [A20G U32A A43C U53G] , thanks.
0.607

yeast fitness lookup needed for GUUCCGUUGGCGUAAUGGUAACGCGUCUCCAUCCUAAGGAGUAGACUGCGGGUUCGAGUCCCGUACGGAACG [C31A A42U] , thanks.
0.909

yeast fitness lookup needed for GUUCCGUUGGCGUACUGGUAAUGCGUCUCCCUCCUAAGGAGAAGACUGCGGGUACGAGUCCCGUACGGAACG [A15C C22U U54A] , thanks.
0.636

yeast fitness lookup needed for GUUCCAUUGGCGUAAUGGUAACGCGUUUCCCUCCUAAGGAGAAGACUGCGGGUUCGAGUCCCGUACGGUACG [G6A C27U A69U] , thanks.
0.695

yeast fitness lookup needed for GUUCCGUUGGCGUAAUGGUGACCCGUCUCCUUCCUAAGGAGAAGAGUGCGGGUUCGAGUCCCGUACGGAACG [A20G G23C C31U C46G] , thanks.
0.526

yeast fitness lookup needed for GUUACGUUGGUGUAAUGGUAACGCGUCUCCCUCCUACGGAGAAGACUGCGGGUUCGAGUCCCGUACGGAACG [C4A C11U A37C] , thanks.
0.537

yeast fitness lookup needed for GUUCCGUUGGCGUAAUGGUAACGCGUCUCCCUCCUAAGGAGAACACUGCGGGUUCGACUCCCGUAUGGAACG [G44C G58C C66U] , thanks.
0.653

yeast fitness lookup needed for GUUCCGUUGGCGAAAUGGUAACGCGUCUCUCUCCUAAGGAGAAGCCUGCGGGUUCGAGUCCCGUACGGAACG [U13A C30U A45C] , thanks.
0.611

yeast fitness lookup needed for GUUCCGUUGGCGUAAUGGUAACGUGUCUCCCUCCUAAGGAGAAGCCUGUGGGUUCGAGUCCCGUACGGAACG [C24U A45C C49U] , thanks.
0.791

yeast fitness lookup needed for GUUCCGUUGGCGUAAUGGUAACGCGUCUUCCUCCUAACGAGAAGACUGCGGGUUCGAGUCCCGUACGGAACG [C29U G38C] , thanks.
0.545

yeast fitness lookup needed for GUUACGUUGGCGUAAUGGUAACGCGCCUCCCUCCUAAGGAGAAGACUGCGGGUUCGAGUCCCGUACGGAACG [C4A U26C] , thanks.
0.972

yeast fitness lookup needed for GUUCCGUUGGCGUAAUGGUUACGCAUCUCCCUCCUAAGGAGAAGACUGCGGGUUCGAGUCCCGUACGGUACG [A20U G25A A69U] , thanks.
0.838

yeast fitness lookup needed for GUUCCGUUGGCGUAAUGGUAACGCGUCUCCCUCCUAAGGGGAAGACUACGGGUUCGAGUCCCAUACGGAACG [A40G G48A G63A] , thanks.
0.774

yeast fitness lookup needed for GGUCCGUUGGCGUAAUAGUAACGUGUCUCCCUCCUUUGGAGAAGACUGCGGGUUCGAGUCCCGUACGGAACG [U2G G17A C24U A36U A37U] , thanks.
0.585

yeast fitness lookup needed for GUUCCGUUGGCGUAAUGGUAACGCGUCUCCCUCCUAAGGAGAAGACUGCGGGUUCGACCCCCGUACGGAGCG [G58C U59C A70G] , thanks.
0.706

yeast fitness lookup needed for GUUCCGUUCGCGUAAUGGUAACGCGUUUCCCUCCUAAGGAGAAGACUGCGGGAUCGAGUCCCGUACGGAACG [G9C C27U U53A] , thanks.
0.548

yeast fitness lookup needed for GUUCGGUUCGCGUAAUGGUAACGCGUCUCCCUCCUAAGGAGAAGACUGCGGGUUCGAGUCCCGUUCGGAACG [C5G G9C A65U] , thanks.
0.555

yeast fitness lookup needed for GUUCCGUUGGCGUAAUGGUAACGCGUCUCCCUCCUAAGGGGAAGACUGCGGGUUCGAGUCCCGUACGCAACG [A40G G68C] , thanks.
0.709

yeast fitness lookup needed for GUUUCGUUGGCGCGAUGGUAACGCGUCUCCCUCCUAAGGAGAAGACUGCGGGUUCGAGUCCCGUACGGAACG [C4U U13C A14G] , thanks.
0.587

yeast fitness lookup needed for GUUCCGUUGGCGUAAUGGUAGCGCGUCUCCCUCCUAAGGAGAAGACUGCGGGUUCGACCCCCAUACGGAACG [A21G G58C U59C G63A] , thanks.
0.701

yeast fitness lookup needed for GUUCCGUUGGCGUAAUGGUAACGCGUCUCCCUUCUAAGGAGAUGACUGCGGGUUCGAGUCCCGUACGGAACG [C33U A43U] , thanks.
0.898

yeast fitness lookup needed for GUUCCGUUGGCGUGAUGGCAUCGCGUCUCCCUCCUAAGGAGAAGACUGCGGGUUCGAGUCCCGUACGGAACG [A14G U19C A21U] , thanks.
0.503

yeast fitness lookup needed for GUUCCGCUGGCGUAAUGGUAACGCGUCUCCCUCCUAAGGAACAGACUGCCGGUUCGAGUCCCAUACGGAGCG [U7C G41A A42C G50C G63A A70G] , thanks.
0.555

yeast fitness lookup needed for GUUCCGUUGGCGUAAUGGUUACGCGACUCCCUCCUAAGGAGAAGACUGCGGGUUCGAGUCCUGUACGGAACG [A20U U26A C62U] , thanks.
0.542

yeast fitness lookup needed for GUUCCGUUGGCGUAAUGGUAACGCGUCUCCCUCCUAAGGAGAAGACUGCGGGGACGAGUCCUGUACGGAACG [U53G U54A C62U] , thanks.
0.549
